Values from patent US8273767B2

# melting point per record follows
Where a name gives a salt, the structure may show the parent alone.

Here are 5 molecules together with their reported answers.
* COc1ccc(-c2ccc3nc(CCN4CCC[C@H]4C)ccc3c2)cn1 (as salt: tartrate) | 132 to 134 °C
* C[C@@H]1CCCN1CCc1ccc2cc(-c3ccncc3)ccc2n1 (as salt: hydrochloride) | 145 to 147 °C
* C[C@@H]1CCCN1CCc1ccc2cc(-c3ccc(Cl)nc3Cl)ccc2n1 (as salt: hydrochloride) | 105 to 107 °C
* COC(=O)c1ccc(-c2ccc3nc(CCN4CCC[C@H]4C)ccc3c2)cc1 (as salt: hydrochloride) | 172 to 174 °C
* C[C@@H]1CCCN1CCc1ccc2cc(-c3ccc(C#N)cc3)ccc2c1 (as salt: tartrate) | 157.4 to 158.1 °C

With those in mind, consider the next molecule.
Item under review: CSc1ccc(-c2ccc3nc(CCN4CCC[C@H]4C)ccc3c2)cc1 (as salt: hydrochloride) . Reported melting point?
158 to 159 °C
